assay: Solubility test of compounds in water; details: 25 °C, thermodynamic from solid
endpoint.name: solubility at 30 min

substance.smiles	reported
CN[C@H](CC(C)C)C(=O)N[C@H]1C(=O)N[C@@H](CC(N)=O)C(=O)N[C@H]2C(=O)N[C@H]3C(=O)N[C@H](C(=O)N[C@H](C(=O)O)c4cc(O)cc(O)c4-c4cc3ccc4O)[C@H](O)c3ccc(c(Cl)c3)Oc3cc2cc(c3O[C@@H]2O[C@H](CO)[C@@H](O)[C@H](O)[C@H]2O[C@H]2C[C@](C)(N)[C@H](O)[C@H](C)O2)Oc2ccc(cc2Cl)[C@H]1O	≥ 100 mg/mL

----------
Reported solubility at 30 min values for the following compounds.
assay: physchem; settings: 25 °C, water, thermodynamic from solid
endpoint.name: solubility at 30 min

compound	endpoint.name	reported
COC(=O)C(CNC1(C)CC(OC2C(Oc3c4cc5cc3Oc3ccc(cc3Cl)[C@@H](O)[C@@H]3NC(=O)C(NC(=O)C5NC(=O)C(CC(N)=O)NC(=O)[C@@H](NC(=O)[C@H](N)CC(C)C)C(O)c5ccc(c(Cl)c5)O4)c4ccc(O)c(c4)-c4c(O)cc(O)cc4C(C(=O)O)NC3=O)OC(CO)C(O)C2O)OC(C)C1O)OCc1ccc(Cl)cc1 (stereo partly drawn)	solubility at 30 min	20 mg/mL
CC(C)C[C@@H](N)C(=O)NC1C(=O)N[C@@H](CC(N)=O)C(=O)N[C@H]2C(=O)NC3C(=O)N[C@H](C(=O)N[C@@H](C(=O)O)c4cc(O)cc(O)c4-c4cc3ccc4O)[C@H](O)c3ccc(c(Cl)c3)Oc3cc2cc(c3OC2OC(CO)C(O)C(O)C2OC2CC(C)(NCC(OCc3ccc(-c4ccc(Cl)cc4)cc3)C(=O)O)C(O)C(C)O2)Oc2ccc(cc2Cl)[C@H]1O (stereo partly drawn)	solubility at 30 min	15 to 20 mg/mL
CN[C@H](CC(C)C)C(=O)NC1C(=O)N[C@@H](CC(N)=O)C(=O)N[C@H]2C(=O)NC3C(=O)N[C@H](C(=O)N[C@@H](C(=O)O)c4cc(O)cc(O)c4-c4cc3ccc4O)[C@H](O)c3ccc(c(Cl)c3)Oc3cc2cc(c3OC2OC(CO)C(O)C(O)C2OC2CC(C)(NCC(OC)C(=O)O)C(O)C(C)O2)Oc2ccc(cc2Cl)[C@H]1O (stereo partly drawn)	solubility at 30 min	20 mg/mL
CN[C@H](CC(C)C)C(=O)NC1C(=O)N[C@@H](CC(N)=O)C(=O)N[C@H]2C(=O)NC3C(=O)N[C@H](C(=O)N[C@@H](C(=O)O)c4cc(O)cc(O)c4-c4cc3ccc4O)[C@H](O)c3ccc(c(Cl)c3)Oc3cc2cc(c3OC2OC(CO)C(O)C(O)C2OC2CC(C)(NCC(OCc3ccc(-c4ccccc4)cc3)C(=O)O)C(O)C(C)O2)Oc2ccc(cc2Cl)[C@H]1O (stereo partly drawn)	solubility at 30 min	> 10 mg/mL
CCCCCCOC(CNC1(C)CC(OC2C(Oc3c4cc5cc3Oc3ccc(cc3Cl)[C@@H](O)[C@@H]3NC(=O)C(NC(=O)C5NC(=O)C(CC(N)=O)NC(=O)[C@@H](NC(=O)[C@@H](CC(C)C)NC)C(O)c5ccc(c(Cl)c5)O4)c4ccc(O)c(c4)-c4c(O)cc(O)cc4C(C(=O)O)NC3=O)OC(CO)C(O)C2O)OC(C)C1O)C(=O)OC (stereo partly drawn)	solubility at 30 min	< 1 mg/mL
CCCCCCCCCCOC(CNC1(C)CC(OC2C(Oc3c4cc5cc3Oc3ccc(cc3Cl)[C@@H](O)[C@@H]3NC(=O)C(NC(=O)C5NC(=O)C(CC(N)=O)NC(=O)[C@@H](NC(=O)[C@H](N)CC(C)C)C(O)c5ccc(c(Cl)c5)O4)c4ccc(O)c(c4)-c4c(O)cc(O)cc4C(C(=O)O)NC3=O)OC(CO)C(O)C2O)OC(C)C1O)C(=O)O (stereo partly drawn)	solubility at 30 min	5 to 10 mg/mL

These entries and their values trace back to patent US9828413B2.
